molecular target: Glucose transporter (Leishmania mexicana) (UniProt O61059); assay: ST_JUDE_LEISH: Cytotoxicity at 2uM final concentration against transgenic Leishmania Mexicana promastigotes LmGT2 that are glucose transport deficient and complemented with the L. Mexicana glucose transporter 2. Activity is measured by DNA content using SYBR green in vitro; format: functional
Property: inhibition (%)
// units = %; emit number, no label

compound=COc1cc(N)c(Cl)cc1C(=O)NCC1CCN(c2nc(C)cc(C)n2)CC1 reported=-0.76
compound=Cc1c(C)n(Cc2ccccc2)c2ncnc(OC3CCN(CC(=O)NCC4CC4)CC3)c12 reported=0.21
compound="Cc1cc(C(=O)N(Cc2ccc(-c3ccc(CNCCc4ccc(S(C)(=O)=O)cc4)cn3)cc2)C(C)CN(C)C)ccc1[N+](=O)[O-] (stereo not given)" reported=6.55
compound=C[C@@H](Oc1cc(-n2cnc3cc(SCCN4CCN(C)CC4)ccc32)sc1C(N)=O)c1ccccc1Cl reported=23.6

Could you now look at the following compound, please?
Lookup: What does the data say about its inhibition? Entry: OC(CNC1CCCCC1)Cn1c2ccc(I)cc2c2cc(I)ccc21 (stereo not given)
Found: 1.17

###

Recorded inhibition, one value per entry.
biological target: Glucose transporter (Leishmania mexicana); test: ST_JUDE_LEISH: Cytotoxicity at 2uM final concentration against transgenic Leishmania Mexicana promastigotes LmGT2 that are glucose transport deficient and complemented with the L. Mexicana glucose transporter 2. Activity is measured by DNA content using SYBR green in vitro; format: functional
// units = %; emit number, no label

Here are 4 compounds together with their reported answers.
compound=CCCN1CCN(CCCNc2c3ccccc3nc3ccccc23)CC1 reported=65.1
compound=CCc1ccc(N2C(N)=NC(N)=NC2(C)C)cc1 reported=2.09
compound="COc1ccc(-n2nc(C)c3c2NC(=O)CC3c2ccccc2OCc2ccc(F)cc2)cc1 (stereo unspecified)" reported=5.62
compound=Cc1cc(N2CC=CCC2)nc(NC(=N)Nc2ccc(Cl)cc2)n1 reported=6.89

Lookup: What does the data say about its inhibition? Entry: O=C1C2C(c3ccc(Cl)c(Cl)c3)N3CC(OCc4ccccc4)CC3(C(=O)O)C2C(=O)N1c1ccc(Br)cc1 (stereo unspecified)
Found: 3.46

Lookup: What do you get for O=C(Nc1ccc(Br)cc1)N(CCN1CCOCC1)CC(O)COc1ccc(Cl)c(F)c1 (stereo unspecified) ?
Found: 1.5

###

biological target: Solute carrier family 2, facilitated glucose transporter member 1 (Homo sapiens) (UniProt P11166); test: ST_JUDE_LEISH: Cytotoxicity at 2uM final concentration against transgenic Leishmania Mexicana promastigotes LmGLUT1 that are glucose transport deficient and complemented with the human glucose transporter GLUT1. Activity is measured by DNA content using SYBR green in vitro; type: functional
Sequence (P11166 whole entry): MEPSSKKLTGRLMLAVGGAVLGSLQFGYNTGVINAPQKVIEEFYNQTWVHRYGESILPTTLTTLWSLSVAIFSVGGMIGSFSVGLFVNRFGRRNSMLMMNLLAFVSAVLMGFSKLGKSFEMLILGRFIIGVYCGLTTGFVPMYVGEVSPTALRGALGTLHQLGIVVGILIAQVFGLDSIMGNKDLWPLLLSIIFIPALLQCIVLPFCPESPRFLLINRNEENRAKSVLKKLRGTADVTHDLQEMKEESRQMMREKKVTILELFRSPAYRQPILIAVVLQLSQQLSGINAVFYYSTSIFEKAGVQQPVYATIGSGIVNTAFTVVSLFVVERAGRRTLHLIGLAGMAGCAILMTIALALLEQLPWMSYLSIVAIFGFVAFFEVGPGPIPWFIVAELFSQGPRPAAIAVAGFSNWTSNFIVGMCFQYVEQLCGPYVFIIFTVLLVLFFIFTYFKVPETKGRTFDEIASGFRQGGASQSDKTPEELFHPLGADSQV
Recorded inhibition, one value per entry.

molecule=CCCCc1cc(NCC)nc(Nc2cccc(OC)c2)n1 property=inhibition reported=38.6%
molecule="CC1CCC(NC(=O)c2nn(-c3ccc(Cl)cc3)c(=O)c3ccccc23)CC1 (stereo not given)" property=inhibition reported=1.52%
molecule="CCN1CCCC1CNC(=O)c1cc2c(-c3ccc(Cl)cc3)nn(C)c2s1 (stereo not given)" property=inhibition reported=2.89%
molecule=CCOc1ccc(S(=O)(=O)N(C)c2ccc(OCC(=O)Nc3nccs3)cc2)cc1 property=inhibition reported=5.83%

Lookup: What does the data say about its inhibition? Entry: COc1cc(F)c2ncc(F)c([C@@H](O)CN3CCC(NCc4cc5c(cn4)OCCO5)CC3)c2c1
Found: 1.43%

Lookup: What do you get for CC1=NN(c2ccc(C)c(C)c2)C(=O)C1=NNc1cccc(-c2cccc(NC(=O)OC(C)(C)C)c2)c1O ?
Found: 1.48%

Lookup: What do you get for Cc1cccc(C=NN=c2cc(C)[nH]c3ccc(F)cc23)n1 ?
Found: 6.63%

Lookup: What do you get for COc1ccc2nccc([C@@H](O)CN3CCC(NCc4cc5c(F)ccc(F)c5[nH]4)CC3)c2c1 ?
Found: 21.9%

Lookup: What do you get for O=C(N[C@H]1CCN(Cc2ccc(OCCCN3CCCCC3)cc2)C1)c1ccc(Oc2ccccc2)cc1 ?
Found: 72.1%

Lookup: What do you get for COc1cccc(CNC(=O)[C@H]2CNCCN2C(=O)CCCc2ccccc2)c1 ?
Found: 3.03%

###

Recorded inhibition, one value per entry.
target: Solute carrier family 2, facilitated glucose transporter member 1 (Homo sapiens) (UniProt P11166); assay: ST_JUDE_LEISH: Cytotoxicity at 2uM final concentration against transgenic Leishmania Mexicana promastigotes LmGLUT1 that are glucose transport deficient and complemented with the human glucose transporter GLUT1. Activity is measured by DNA content using SYBR green in vitro; format: functional
// units = %; emit number, no label

Here are 9 compounds together with their reported answers.
compound="CCCCN(CCCC)CC(O)c1cc(-c2ccc(Cl)cc2)nc2c(Cl)cc(Cl)cc12 (stereo not given)" reported=6.76
compound=CCCCCCCN(Cc1ccc(OC(C)(C)C(=O)OCC)cc1)C(=O)Nc1ccc(Cl)cc1OCC reported=3.65
compound=O=C(Nc1ccc(-c2cccc(-c3nc4ccccc4[nH]3)c2)cc1)Nc1ccc(F)c(F)c1F reported=0.73
compound=Cc1[nH]c(C)c(-c2ccc(OCc3ccc(F)cc3)cc2)c(=O)c1Cl reported=-0.65
compound=c1ccc(-c2ccc3c(Nc4ccc5[nH]ncc5c4)ccnc3c2)nc1 reported=4.92
compound="CCN(CC(C)O)C(=O)c1ccc(-c2ccc(-c3nc4cccc(C)c4[nH]3)cc2)cc1 (stereo not given)" reported=6.07
compound=O=C(Nc1ccc2nccc(N3CCN4CCC[C@H]4C3)c2c1)c1ccc(Cl)c(Cl)c1 reported=1.13
compound=Nc1ncc(-c2ccccc2)cc1/C=C/c1cccnc1 reported=0.64
compound=CN(C)CCCNc1ccnc2cc(Cl)ccc12 reported=1.15

Could you now look at the following compound, please?
Lookup: What does the data say about its inhibition? Entry: COc1ccc(Cl)cc1S(=O)(=O)Nc1cccc(CCN2CCC(N3CCCCC3)CC2)c1
Found: 2.48

###

Recorded inhibition, one value per entry.
target: Solute carrier family 2, facilitated glucose transporter member 1 (Homo sapiens) (UniProt P11166); test: ST_JUDE_LEISH: Cytotoxicity at 2uM final concentration against transgenic Leishmania Mexicana promastigotes LmGLUT1 that are glucose transport deficient and complemented with the human glucose transporter GLUT1. Activity is measured by DNA content using SYBR green in vitro; format: functional
// units = %; emit number, no label

Here are 3 compounds together with their reported answers.
compound=Cc1cccc2nc(-c3ccc(-c4cccc(CNCCCNS(C)(=O)=O)c4)cc3)[nH]c12 reported=0.32
compound=CCc1cccc2c(C#N)cn(CC(=O)NCCc3ccccc3)c12 reported=6.99
compound="CCCC1N=C(N)N=C(N)N1c1cccc(C(F)(F)F)c1 (stereo not given)" reported=0.83

Lookup: What does the data say about its inhibition? Entry: Cc1cc(C)c(S(=O)(=O)N2CCCCC(c3cccc(C(F)(F)F)c3)=N2)c(C)c1
Found: 1.84

Lookup: What do you get for O=C(Nc1cccc(-c2cccc(-c3nc4ccccc4[nH]3)c2)c1)c1cccnc1 ?
Found: 2.95

Lookup: What do you get for Cc1ccc(O)cc1Nc1ccnc2cc(-c3cccc(CNCCS(C)(=O)=O)c3)ccc12 ?
Found: 1.09

Lookup: What do you get for Cc1cccc(CNc2nc(C)cc(NCCC(=O)NCCOc3ccccc3)n2)c1 ?
Found: 6.22

Lookup: What do you get for CCCCCCOc1ccc(C(=O)NCCCC2CCN(CCCCCNC(=O)C=Cc3ccc(Cl)c(Cl)c3)CC2)cc1 ?
Found: 2.75

Lookup: What do you get for CC(=O)Nc1ncc(C(=O)Nc2cccc(-c3cccc(-c4nc5cccc(C)c5[nH]4)c3)c2)s1 ?
Found: 3.02

Lookup: What do you get for COCCNC(=O)c1ccc(OC2CCN(CC(C)=Cc3ccccc3)CC2)c(Cl)c1 ?
Found: 2.65

###

target: Solute carrier family 2, facilitated glucose transporter member 1 (Homo sapiens); experiment: ST_JUDE_LEISH: Cytotoxicity at 2uM final concentration against transgenic Leishmania Mexicana promastigotes LmGLUT1 that are glucose transport deficient and complemented with the human glucose transporter GLUT1. Activity is measured by DNA content using SYBR green in vitro; format: functional
Recorded inhibition, one value per entry.
// units = %; emit number, no label

compound=COc1ccccc1CCNc1nccc(N[C@@H](Cc2ccccc2)C(=O)NCc2cccs2)n1 target_of_assay="Solute carrier family 2, facilitated glucose transporter member 1 (Homo sapiens)" uom=% reported=1.78
compound=O=C(Cn1c(CCc2cccc(F)c2F)cc(=O)c2ccccc21)N(CCN1CCCC1)Cc1ccc(-c2ccc(C(F)(F)F)cc2)cc1 target_of_assay="Solute carrier family 2, facilitated glucose transporter member 1 (Homo sapiens)" uom=% reported=1.56
compound=O=C([C@H]1CCCCN1c1ccc([N+](=O)[O-])c2ccccc12)N1CCN(c2ncccn2)CC1 target_of_assay="Solute carrier family 2, facilitated glucose transporter member 1 (Homo sapiens)" uom=% reported=2.02
compound=CCc1ccc(NC(=O)c2cccc(CN3CCCN(Cc4cccc(O)c4)CC3)c2)cc1 target_of_assay="Solute carrier family 2, facilitated glucose transporter member 1 (Homo sapiens)" uom=% reported=3.9
compound=N#Cc1ccc(N2CCN(Cc3ccc(-c4cccc(-c5nc6ccccc6[nH]5)c4)cc3)CC2)nc1 target_of_assay="Solute carrier family 2, facilitated glucose transporter member 1 (Homo sapiens)" uom=% reported=2.3

Lookup: What does the data say about its inhibition? Entry: Cc1nc(-c2nc(NCc3ccccn3)ncc2-c2ccsc2)sc1C
Found: 6.64

Lookup: What do you get for CN(C)c1ccc(Br)c(Br)c1 ?
Found: 3.2
